Where these numbers come from: the kinase profiling compilation of Christmann-Franck et al. (2016)

- experimental-system: FGFR4 (human)
- experimental-protocol: Caliper, Mobility shift assay off-chip
- cond: compound 1.0 µM
property-name: inhibition (%)
Numeric answer only, unit % assumed.

sample_smiles=Cn1cc(-c2cnc3ccc4ccc(CS(=O)(=O)CCc5ccccn5)cc4c(=O)c3c2)cn1 experimental_system="FGFR4 (human)" val=15.7
sample_smiles=O=C(CCc1ccc2ccc3ncc(C4CCNCC4)cc3c(=O)c2c1)NCc1ccccn1 experimental_system="FGFR4 (human)" val=-3.3
sample_smiles=Cn1cc(-c2cnc3ccc4ccc(CS(N)(=O)=O)cc4c(=O)c3c2)cn1 experimental_system="FGFR4 (human)" val=19.6

Could you now look at the following compound, please?
Here CN(c1ccc2ccc3ncc(-c4cnn(C)c4)cc3c(=O)c2c1)S(=O)(=O)NCc1ccccn1 was tested on FGFR4 (human), and its inhibition came to 22.4

====

# inhibition per entry
- Test system: ABL1 (human), P00519 [T315I]
- experimental-protocol: Caliper, Mobility shift assay off-chip
- cond: compound 1.0 µM
Numeric answer only, unit % assumed.

Reference set (3 entries):
sample_smiles=O=C(CCc1ccc2ccc3ncc(C4CCNCC4)cc3c(=O)c2c1)NCc1ccccn1 unit_annotation=% val=1.3
sample_smiles=CN(c1ccc2ccc3ncc(-c4cnn(C)c4)cc3c(=O)c2c1)S(=O)(=O)NCc1ccccn1 unit_annotation=% val=41.1
sample_smiles=Cn1cc(-c2cnc3ccc4ccc(CS(=O)(=O)CCc5ccccn5)cc4c(=O)c3c2)cn1 unit_annotation=% val=4.4

Could you now look at the following compound, please?
Here Cn1cc(-c2cnc3ccc4ccc(CS(N)(=O)=O)cc4c(=O)c3c2)cn1 was tested on ABL1 (human), P00519 [T315I], and its inhibition came to 12.7

====

- experimental-system: LYN (human)
- experimental-protocol: Caliper, Mobility shift assay off-chip
- cond: compound 0.1 µM
property-name: inhibition (%)
Numeric answer only, unit % assumed.

Reference set (6 entries):
molecule=CN(c1ccc2ccc3ncc(-c4cnn(C)c4)cc3c(=O)c2c1)S(=O)(=O)NCc1ccccn1 val=2.5
molecule=Cn1cc(-c2cnc3ccc4ccc(CS(=O)(=O)CCc5ccccn5)cc4c(=O)c3c2)cn1 val=-7.4
molecule=O=c1c2cc(CS(=O)(=O)NCc3ccccn3)ccc2ccc2ncc(C3CCNCC3)cc12 val=-9.2
molecule=Cn1cc(-c2cnc3ccc4ccc(CS(=O)(=O)NC5CCCCC5)cc4c(=O)c3c2)cn1 val=3.6
molecule=O=C(CCc1ccc2ccc3ncc(C4CCNCC4)cc3c(=O)c2c1)NCc1ccccn1 val=3.5
molecule="Cn1cc(-c2cnc3ccc4ccc(CS(=O)(=O)NCC5CCCCN5)cc4c(=O)c3c2)cn1 (configuration not stated)" val=17.3

Looking up Cn1cc(-c2cnc3ccc4ccc(CS(N)(=O)=O)cc4c(=O)c3c2)cn1 , I see its inhibition listed as -8.7

====

- experimental-system: CAMK2B (human) (UniProt Q13554)
- Sequence (Q13554 whole entry, looked up): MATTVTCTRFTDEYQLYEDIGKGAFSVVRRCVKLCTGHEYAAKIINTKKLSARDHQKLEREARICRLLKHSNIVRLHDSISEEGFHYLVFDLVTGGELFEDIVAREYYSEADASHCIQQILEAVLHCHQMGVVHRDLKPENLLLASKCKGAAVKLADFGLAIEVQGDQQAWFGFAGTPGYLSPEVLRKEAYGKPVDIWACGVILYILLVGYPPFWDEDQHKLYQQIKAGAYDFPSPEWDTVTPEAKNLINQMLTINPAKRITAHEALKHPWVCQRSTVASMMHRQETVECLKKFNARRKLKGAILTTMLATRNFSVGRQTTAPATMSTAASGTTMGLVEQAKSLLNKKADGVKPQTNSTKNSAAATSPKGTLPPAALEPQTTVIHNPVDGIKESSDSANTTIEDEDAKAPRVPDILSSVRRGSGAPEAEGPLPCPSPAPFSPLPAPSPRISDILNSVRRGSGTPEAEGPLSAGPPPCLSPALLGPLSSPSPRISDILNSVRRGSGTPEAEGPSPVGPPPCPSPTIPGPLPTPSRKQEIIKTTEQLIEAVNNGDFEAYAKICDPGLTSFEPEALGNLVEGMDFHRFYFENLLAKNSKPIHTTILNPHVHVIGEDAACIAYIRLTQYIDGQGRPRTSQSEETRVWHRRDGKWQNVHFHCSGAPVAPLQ
- experimental-protocol: Caliper, Mobility shift assay off-chip
- cond: compound 0.1 µM
property-name: inhibition (%)
Numeric answer only, unit % assumed.

Reference set (4 entries):
compound="Cn1cc(-c2cnc3ccc4ccc(CS(=O)(=O)NCC5CCCCN5)cc4c(=O)c3c2)cn1 (configuration not stated)" val=2.1
compound=CN(c1ccc2ccc3ncc(-c4cnn(C)c4)cc3c(=O)c2c1)S(=O)(=O)NCc1ccccn1 val=5.9
compound=O=c1c2cc(CS(=O)(=O)NCc3ccccn3)ccc2ccc2ncc(C3CCNCC3)cc12 val=-4.6
compound=Cn1cc(-c2cnc3ccc4ccc(CS(=O)(=O)CCc5ccccn5)cc4c(=O)c3c2)cn1 val=20.2

Looking up Cn1cc(-c2cnc3ccc4ccc(CS(N)(=O)=O)cc4c(=O)c3c2)cn1 , I see its inhibition listed as -21.3

Looking up Cn1cc(-c2cnc3ccc4ccc(CS(=O)(=O)NC5CCCCC5)cc4c(=O)c3c2)cn1 , I see its inhibition listed as -5.2

Looking up O=C(CCc1ccc2ccc3ncc(C4CCNCC4)cc3c(=O)c2c1)NCc1ccccn1 , I see its inhibition listed as -1.6

====

- experimental-system: CHEK1 (human) (UniProt O14757)
- Sequence (O14757 whole entry, looked up): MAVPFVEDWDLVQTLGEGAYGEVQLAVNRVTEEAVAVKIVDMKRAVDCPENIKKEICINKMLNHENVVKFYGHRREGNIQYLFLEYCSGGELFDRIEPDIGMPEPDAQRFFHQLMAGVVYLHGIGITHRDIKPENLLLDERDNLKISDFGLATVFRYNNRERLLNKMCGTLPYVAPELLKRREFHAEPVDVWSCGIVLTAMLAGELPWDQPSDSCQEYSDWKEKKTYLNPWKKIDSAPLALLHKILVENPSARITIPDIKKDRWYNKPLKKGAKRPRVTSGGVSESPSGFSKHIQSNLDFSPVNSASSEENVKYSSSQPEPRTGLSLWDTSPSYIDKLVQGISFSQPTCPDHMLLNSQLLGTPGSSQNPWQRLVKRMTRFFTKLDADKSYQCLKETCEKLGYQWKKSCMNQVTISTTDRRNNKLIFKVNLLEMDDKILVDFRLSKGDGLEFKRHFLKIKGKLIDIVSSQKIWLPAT
- experimental-protocol: Caliper, Mobility shift assay off-chip
- cond: compound 1.0 µM
property-name: inhibition (%)
Numeric answer only, unit % assumed.

Reference set (3 entries):
molecule="Cn1cc(-c2cnc3ccc4ccc(CS(=O)(=O)NCC5CCCCN5)cc4c(=O)c3c2)cn1 (stereo not given)" val=0.4
molecule=Cn1cc(-c2cnc3ccc4ccc(CS(=O)(=O)CCc5ccccn5)cc4c(=O)c3c2)cn1 val=2.5
molecule=O=C(CCc1ccc2ccc3ncc(C4CCNCC4)cc3c(=O)c2c1)NCc1ccccn1 val=2.9

Looking up CN(c1ccc2ccc3ncc(-c4cnn(C)c4)cc3c(=O)c2c1)S(=O)(=O)NCc1ccccn1 , I see its inhibition listed as 2.6

Looking up Cn1cc(-c2cnc3ccc4ccc(CS(N)(=O)=O)cc4c(=O)c3c2)cn1 , I see its inhibition listed as 3.1

====

- experimental-system: TSSK1B (human) (UniProt Q9BXA7)
- Sequence (Q9BXA7 whole entry, looked up): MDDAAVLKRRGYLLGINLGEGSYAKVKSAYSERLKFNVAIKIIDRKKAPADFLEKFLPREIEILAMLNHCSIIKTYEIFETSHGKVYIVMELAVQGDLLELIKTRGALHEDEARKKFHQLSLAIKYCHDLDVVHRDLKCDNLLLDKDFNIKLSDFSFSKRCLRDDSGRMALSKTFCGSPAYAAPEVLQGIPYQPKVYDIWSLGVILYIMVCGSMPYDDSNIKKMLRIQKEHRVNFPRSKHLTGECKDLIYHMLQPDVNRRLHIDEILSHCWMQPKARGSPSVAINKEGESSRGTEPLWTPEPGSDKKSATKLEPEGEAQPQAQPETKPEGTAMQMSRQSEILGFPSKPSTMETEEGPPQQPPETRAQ
- experimental-protocol: Caliper, Mobility shift assay off-chip
- cond: compound 0.1 µM
property-name: inhibition (%)
Numeric answer only, unit % assumed.

Reference set (5 entries):
compound=O=c1c2cc(CS(=O)(=O)NCc3ccccn3)ccc2ccc2ncc(C3CCNCC3)cc12 val=-5.2
compound=Cn1cc(-c2cnc3ccc4ccc(CS(=O)(=O)CCc5ccccn5)cc4c(=O)c3c2)cn1 val=19.8
compound=Cn1cc(-c2cnc3ccc4ccc(CS(N)(=O)=O)cc4c(=O)c3c2)cn1 val=-0.9
compound=CN(c1ccc2ccc3ncc(-c4cnn(C)c4)cc3c(=O)c2c1)S(=O)(=O)NCc1ccccn1 val=-4.8
compound=Cn1cc(-c2cnc3ccc4ccc(CS(=O)(=O)NC5CCCCC5)cc4c(=O)c3c2)cn1 val=1.9

Looking up O=C(CCc1ccc2ccc3ncc(C4CCNCC4)cc3c(=O)c2c1)NCc1ccccn1 , I see its inhibition listed as 5.4

Looking up Cn1cc(-c2cnc3ccc4ccc(CS(=O)(=O)NCC5CCCCN5)cc4c(=O)c3c2)cn1 (configuration not stated) , I see its inhibition listed as -2.7

====

# inhibition per entry
- experimental-system: SRC (human) (UniProt P12931)
- Sequence (P12931 whole entry, looked up): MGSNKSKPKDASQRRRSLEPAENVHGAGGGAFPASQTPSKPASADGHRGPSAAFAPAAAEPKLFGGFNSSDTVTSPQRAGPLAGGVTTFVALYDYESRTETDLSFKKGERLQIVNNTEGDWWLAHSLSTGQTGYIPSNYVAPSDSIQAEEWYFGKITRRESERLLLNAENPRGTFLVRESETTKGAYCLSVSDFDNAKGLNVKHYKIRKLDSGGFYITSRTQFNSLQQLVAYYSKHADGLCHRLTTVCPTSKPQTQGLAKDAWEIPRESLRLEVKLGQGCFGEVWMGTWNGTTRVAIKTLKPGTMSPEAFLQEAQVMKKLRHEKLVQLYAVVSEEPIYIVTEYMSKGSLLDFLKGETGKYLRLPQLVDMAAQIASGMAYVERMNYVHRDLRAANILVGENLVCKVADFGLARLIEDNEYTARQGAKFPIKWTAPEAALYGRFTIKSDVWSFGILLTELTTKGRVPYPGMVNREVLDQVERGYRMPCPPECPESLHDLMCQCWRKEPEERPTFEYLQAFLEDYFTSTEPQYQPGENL
- experimental-protocol: Caliper, Mobility shift assay off-chip
- cond: compound 1.0 µM
Numeric answer only, unit % assumed.

Reference set (4 entries):
molecule="Cn1cc(-c2cnc3ccc4ccc(CS(=O)(=O)NCC5CCCCN5)cc4c(=O)c3c2)cn1 (stereo not given)" experimental_system="SRC (human) (UniProt P12931)" property_name=inhibition val=2.1
molecule=Cn1cc(-c2cnc3ccc4ccc(CS(N)(=O)=O)cc4c(=O)c3c2)cn1 experimental_system="SRC (human) (UniProt P12931)" property_name=inhibition val=1.3
molecule=O=C(CCc1ccc2ccc3ncc(C4CCNCC4)cc3c(=O)c2c1)NCc1ccccn1 experimental_system="SRC (human) (UniProt P12931)" property_name=inhibition val=6.6
molecule=Cn1cc(-c2cnc3ccc4ccc(CS(=O)(=O)CCc5ccccn5)cc4c(=O)c3c2)cn1 experimental_system="SRC (human) (UniProt P12931)" property_name=inhibition val=4.8

Could you now look at the following molecule, please?
Looking up CN(c1ccc2ccc3ncc(-c4cnn(C)c4)cc3c(=O)c2c1)S(=O)(=O)NCc1ccccn1 , I see its inhibition listed as 14.2

====

- experimental-system: PIM1 (human) (UniProt P11309)
- Sequence (P11309 whole entry, looked up): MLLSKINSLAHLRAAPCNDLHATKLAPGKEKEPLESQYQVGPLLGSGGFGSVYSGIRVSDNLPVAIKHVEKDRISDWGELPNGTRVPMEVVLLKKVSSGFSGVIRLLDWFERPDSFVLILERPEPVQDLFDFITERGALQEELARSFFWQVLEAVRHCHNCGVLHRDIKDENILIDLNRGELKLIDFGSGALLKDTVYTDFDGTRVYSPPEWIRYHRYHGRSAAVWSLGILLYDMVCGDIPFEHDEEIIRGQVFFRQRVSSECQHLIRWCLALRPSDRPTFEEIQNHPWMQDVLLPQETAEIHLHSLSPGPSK
- experimental-protocol: Caliper, Mobility shift assay off-chip
- cond: compound 1.0 µM
# inhibition per entry
Numeric answer only, unit % assumed.

Reference set (4 entries):
compound=CN(c1ccc2ccc3ncc(-c4cnn(C)c4)cc3c(=O)c2c1)S(=O)(=O)NCc1ccccn1 experimental_system="PIM1 (human) (UniProt P11309)" val=2.1
compound=O=C(CCc1ccc2ccc3ncc(C4CCNCC4)cc3c(=O)c2c1)NCc1ccccn1 experimental_system="PIM1 (human) (UniProt P11309)" val=-4.4
compound=Cn1cc(-c2cnc3ccc4ccc(CS(=O)(=O)CCc5ccccn5)cc4c(=O)c3c2)cn1 experimental_system="PIM1 (human) (UniProt P11309)" val=-16.7
compound=Cn1cc(-c2cnc3ccc4ccc(CS(N)(=O)=O)cc4c(=O)c3c2)cn1 experimental_system="PIM1 (human) (UniProt P11309)" val=3.7

Could you now look at the following compound, please?
Looking up Cn1cc(-c2cnc3ccc4ccc(CS(=O)(=O)NCC5CCCCN5)cc4c(=O)c3c2)cn1 (stereo not given) , I see its inhibition listed as -8.3

====

- experimental-system: UniProt:Q9P1W9
- Sequence (Q9P1W9 whole entry, looked up): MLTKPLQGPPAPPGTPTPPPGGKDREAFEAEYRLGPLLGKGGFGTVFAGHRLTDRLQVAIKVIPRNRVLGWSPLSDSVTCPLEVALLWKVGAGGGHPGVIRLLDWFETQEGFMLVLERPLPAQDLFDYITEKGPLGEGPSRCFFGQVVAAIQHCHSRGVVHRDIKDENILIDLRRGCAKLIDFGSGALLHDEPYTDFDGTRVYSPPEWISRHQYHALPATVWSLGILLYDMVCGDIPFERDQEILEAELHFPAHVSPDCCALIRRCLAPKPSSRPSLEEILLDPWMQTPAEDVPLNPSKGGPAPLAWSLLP
- experimental-protocol: Caliper, Mobility shift assay off-chip
- cond: compound 1.0 µM
property-name: inhibition (%)
Numeric answer only, unit % assumed.

compound=Cn1cc(-c2cnc3ccc4ccc(CS(N)(=O)=O)cc4c(=O)c3c2)cn1 property_name=inhibition val=16.5
compound="Cn1cc(-c2cnc3ccc4ccc(CS(=O)(=O)NCC5CCCCN5)cc4c(=O)c3c2)cn1 (stereo not given)" property_name=inhibition val=16.7
compound=O=C(CCc1ccc2ccc3ncc(C4CCNCC4)cc3c(=O)c2c1)NCc1ccccn1 property_name=inhibition val=-3.2
compound=Cn1cc(-c2cnc3ccc4ccc(CS(=O)(=O)CCc5ccccn5)cc4c(=O)c3c2)cn1 property_name=inhibition val=4.7

Looking up CN(c1ccc2ccc3ncc(-c4cnn(C)c4)cc3c(=O)c2c1)S(=O)(=O)NCc1ccccn1 , I see its inhibition listed as 5.1
